B1: NELF-E aptamer (parent)
chain: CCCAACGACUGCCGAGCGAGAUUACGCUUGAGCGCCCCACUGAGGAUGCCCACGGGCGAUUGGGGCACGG

variants of: B1; test: HiTS-RAP; conditions: with NELF-E (Drosophila)
Collected pKd values appear next to each entry.
In textbook form, pKd equals minus log to base ten of the concentration in mol/L.

Some variants with recorded pKd:
Retrieve pKd measured for `G54U` and print it.
8.19

For the variant A8G G30A , give its measured pKd value.
8.31

Recall and state the measured pKd for C13G C38U .
8.18

Name the recorded pKd of the item C13G G16A in your answer.
8.16

More entries:
State its pKd: A4G G54U
8.18

Quote pKd reported for A46G A67G please.
7.44
